test system: HepG2; assay: GSK_TCMDC: Percent inhibition of human HepG2 cell line. Test compounds present at 10uM.; assay type: functional
Give Inhibition for every item shown.
// units = %; emit number, no label

Fill blank: measured Inhibition of the compound CNC(=S)NCc1cnc2ccccn12 is ____.
0

Fill blank: measured Inhibition of the compound Cc1cccc2nc(-c3ccc(-c4cccc(CNCc5ccccc5)c4)cc3)[nH]c12.O=C(O)C(F)(F)F is ____.
3

Fill blank: measured Inhibition of the compound CC(C)=C(C(=O)OCc1ccccc1)N1C(=O)[C@@H](NC(c2ccccc2)(c2ccccc2)c2ccccc2)[C@H]1[S+]([O-])CC(=O)OC(C)(C)C (stereo not given in full) is ____.
0

Fill blank: measured Inhibition of the compound Cl.N=C(N)NN=Cc1c2ccccc2c(Cl)c2c(Cl)cccc12 is ____.
71

Fill blank: measured Inhibition of the compound CC1(C(=O)Nc2ccc([N+](=O)[O-])cc2O)CC2c3ccccc3C1c1ccccc12 (stereo not given) is ____.
37
